system: LN-229 (Glioblastoma); test: Bliss excess, mean over the matrix (fraction); higher = more synergy;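 note: after 72 h of two-drug dosing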
readout_kind: Bliss excess
Give bare numbers.

Reference set (5 entries):
CCN(CCO)CCCOc1ccc2c(Nc3cc(CC(=O)Nc4cccc(F)c4)[nH]n3)ncnc2c1 [AZD2811] + C[C@@H]1COCCN1C2=NC(=NC(=C2)C3(CC3)[S@](=N)(=O)C)C4=C5C=CNC5=NC=C4 [AZD6738] (first compound max 1 µM, 7x7, partner max 10 µM) | -0.0563
NC1(C(=O)N[C@@H](CCO)c2ccc(Cl)cc2)CCN(c2ncnc3[nH]ccc23)CC1 [Capivasertib] + CC(=O)c1c(C)c2cnc(Nc3ccc(N4CCNCC4)cn3)nc2n(C2CCCC2)c1=O [Palbociclib] (first compound max 10 µM, 7x7, partner max 10 µM) | -0.0387
Cc1c2c(nn1C)CSCc1cc(n(C)n1)CSc1cc(c3ccccc3c1)OCCCc1c(C(=O)O)n(C)c3c-2c(Cl)ccc13 [AZD5991] + CCN(CCO)CCCOc1ccc2c(Nc3cc(CC(=O)Nc4cccc(F)c4)[nH]n3)ncnc2c1 [AZD2811] (first compound max 1 µM, 7x7, partner max 1 µM) | 0.0043
C[C@@H]1COCCN1c1cc(C2([S@](C)(=N)=O)CC2)nc(-c2ccnc3[nH]ccc23)n1 [AZD6738] + O=C(c1cc(Cc2n[nH]c(=O)c3ccccc23)ccc1F)N1CCN(C(=O)C2CC2)CC1 [Olaparib] (first compound max 10 µM, 7x7, partner max 10 µM) | -0.0713
CC1(C)CCC(CN2CCN(c3ccc(C(=O)NS(=O)(=O)c4ccc(NCC5CCOCC5)c([N+](=O)[O-])c4)c(Oc4cnc5[nH]ccc5c4)c3)CC2)=C(c2ccc(Cl)cc2)C1 [Venetoclax] + Cn1cnc2c(F)c(Nc3ccc(Br)cc3Cl)c(C(=O)NOCCO)cc21 [Selumetinib] (first compound max 1 µM, 7x7, partner max 3 µM) | -0.0372

Give measured Bliss excess for every item shown.
1. C[C@@H](c1ccc2nccn2c1)n1nnc2ncc(-c3cnn(C)c3)nc21 [Savolitinib] + CN(CC[C@H](CSC1=CC=CC=C1)NC2=C(C=C(C=C2)S(=O)(=O)NC(=O)C3=CC=C(C=C3)N4CCC(CC4)[C@H](C5=CC=CC=C5C6=CC=C(C=C6)Cl)O)S(=O)(=O)C(F)(F)F)CCO [AZD4320] (first compound max 1 µM, 7x7, partner max 1 µM)
2. Cc1c2c(nn1C)CSCc1cc(n(C)n1)CSc1cc(c3ccccc3c1)OCCCc1c(C(=O)O)n(C)c3c-2c(Cl)ccc13 [AZD5991] + Cn1cnc2c(F)c(Nc3ccc(Br)cc3Cl)c(C(=O)NOCCO)cc21 [Selumetinib] (first compound max 1 µM, 7x7, partner max 3 µM)

// result
1. -0.0833
2. 0.0485

====

tested on: WM793B (Melanoma); assay: Bliss excess, mean over the matrix (fraction); higher = more synergy
readout_kind: Bliss excess
Numbers only.

Some molecules with known Bliss excess results, for comparison:
CC1(C)CCC(CN2CCN(c3ccc(C(=O)NS(=O)(=O)c4ccc(NCC5CCOCC5)c([N+](=O)[O-])c4)c(Oc4cnc5[nH]ccc5c4)c3)CC2)=C(c2ccc(Cl)cc2)C1 [Venetoclax] + C=CCn1c(=O)c2cnc(Nc3ccc(N4CCN(C)CC4)cc3)nc2n1-c1cccc(C(C)(C)O)n1 [AZD1775] (first compound max 1 µM, partner max 1 µM) | 0.0101
COc1nnc2ccc(N3CCC(c4ccc(OCCN5CCN(C)C(=O)[C@H]5C)cc4)CC3)nn12 [AZD5153] + C[C@@H]1COCCN1C2=NC(=NC(=C2)C3(CC3)[S@](=N)(=O)C)C4=C5C=CNC5=NC=C4 [AZD6738] (first compound max 1 µM, 7x7, partner max 10 µM) | -0.0158

// next entry
// query Please report the recorded Bliss excess for Cc1cc2ncnn2cc1Nc1ncc2c(n1)n(C1CCOCC1)c(=O)n2C [AZD7648] + O=C(c1cc(Cc2n[nH]c(=O)c3ccccc23)ccc1F)N1CCN(C(=O)C2CC2)CC1 [Olaparib] (first compound max 10 µM, 7x7, partner max 10 µM) .
// result -0.0136
